These measurements were taken from patent US8815846B2.

Listed next: entries and their corresponding IC50.
- System: Trypanosoma cruzi, epimastigote form of the Tulahuen 2 strain
- ASSAY_NOTES: In vitro growth inhibition of Trypanosoma cruzi epimastigotes (Tulahuen 2 strain), absorbance at 600 nm
- Type: cell-based
- CONDITION_LABEL: 120 h, absorbance on day 5, duplicate, error ±3%, read-out: IC50 Anti-T. cruzi activity of the Tulahuen 2 strain
MEASURED_PARAMETER: IC50 (µM)

[[record]]
compound = "NC1=NS(=O)(=O)Nc2nc(Cc3ccccc3)[nH]c21 [drawing 7]"
measured_parameter = "IC50"
value_measured = 16.2

[[record]]
compound = "CCc1nc2c([nH]1)C(N)=NS(=O)(=O)N2"
measured_parameter = "IC50"
value_measured = 28.5

[[record]]
compound = "NC1=NS(=O)(=O)Nc2nc(C3CCCC3)[nH]c21"
measured_parameter = "IC50"
value_measured = 28.9

[[record]]
compound = "CN1c2nc(-c3ccccc3)[nH]c2C(N)=NS1(=O)=O [drawing 8]"
measured_parameter = "IC50"
value_measured = 16.7

[[record]]
compound = "CN(C)c1ccc(-c2nc3c([nH]2)C(N)=NS(=O)(=O)N3)cc1"
measured_parameter = "IC50"
value_measured = 28.5

[[record]]
compound = "NC1=NS(=O)(=O)Nc2nc(CCc3ccccc3)[nH]c21 [drawing 14]"
measured_parameter = "IC50"
value_measured = 11.5

[[record]]
compound = "CN1c2nc(-c3ccsc3)[nH]c2C(N)=NS1(=O)=O"
measured_parameter = "IC50"
value_measured = 26.2

[[record]]
compound = "NC1=NS(=O)(=O)Nc2nc(C3CCCCC3)[nH]c21 [drawing 11]"
measured_parameter = "IC50"
value_measured = 12.7

[[record]]
compound = "NC1=NS(=O)(=O)N(Cc2ccccc2)c2nc(C3CCCCC3)n(Cc3ccccc3)c21 [drawing 17]"
measured_parameter = "IC50"
value_measured = 28.7

